target: MAGI2_6, Q86UL8; experiment: holdup assay; set-up: key: below the threshold = too weak to quantify, mostly under pKd 3.1 to 4; details: plain residues with an end cap or a label only (N-terminal biotin on a linker: ado-ado)
Sequence (Q86UL8 1141-1229): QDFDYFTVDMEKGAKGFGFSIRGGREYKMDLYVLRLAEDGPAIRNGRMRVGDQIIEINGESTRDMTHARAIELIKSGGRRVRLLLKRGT
Hi there, I'd appreciate the recorded pKd for every entry that follows.
Hey, just send me the number, nothing else.

Lookup: I have this binder here, RHGSCVETSL [TMEM151B, Q8IW70] , and I need its recorded pKd.
Found: 4.16

Lookup: I have this binder here, VRNLPESEEL [MYOZ3, Q8TDC0] , and I need its recorded pKd.
Found: 4.01

Lookup: I have this binder here, NLSIEKETKL [ASNSD1, Q9NWL6] , and I need its recorded pKd.
Found: 3.88

Lookup: I have this binder here, YLEPVLSSEL [ATP2A2, P16615;P16615-3] , and I need its recorded pKd.
Found: 3.91

Lookup: I have this binder here, TASPAKETSF [SLC2A7, Q6PXP3] , and I need its recorded pKd.
Found: 4.1

Lookup: I have this binder here, DDENIRTSDV [PLEKHA2, Q9HB19] , and I need its recorded pKd.
Found: 5.21

Hello, the source for this data is paper PMC9482650, in case you need it.
